Observed IC50 values for UniProtKB P49841 are listed in what follows.
Sequence (P49841 whole entry): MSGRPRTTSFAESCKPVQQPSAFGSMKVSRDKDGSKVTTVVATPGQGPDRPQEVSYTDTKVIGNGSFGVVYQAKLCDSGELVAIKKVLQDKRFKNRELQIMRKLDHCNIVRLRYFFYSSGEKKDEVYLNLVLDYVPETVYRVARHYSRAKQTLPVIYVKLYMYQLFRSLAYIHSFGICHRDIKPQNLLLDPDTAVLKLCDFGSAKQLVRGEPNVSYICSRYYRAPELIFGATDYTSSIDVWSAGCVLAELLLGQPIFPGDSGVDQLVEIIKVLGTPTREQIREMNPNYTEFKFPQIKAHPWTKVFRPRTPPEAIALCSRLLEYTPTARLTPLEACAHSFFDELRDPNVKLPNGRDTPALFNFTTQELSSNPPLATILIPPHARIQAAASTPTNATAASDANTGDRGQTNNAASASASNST

{"columns": ["compound", "endpoint result"],
 "data": [
  ["NC(=O)c1ccc(-c2ccnc(NCCNc3ncccn3)n2)cc1", "≤ 1000 nM"]
]}

## Input Fill in: IC50 of "CN(C)CCOC(=O)c1cnc(NCCNc2ccc([N+](=O)[O-])c(N)n2)nc1-c1ccc(Cl)cc1Cl" is ___
## Output ≤ 1000 nM

## Input Fill in: IC50 of "CCOC(=O)c1cnc(NCCNc2ccc([N+](=O)[O-])cn2)nc1-c1ccc(OC(F)(F)F)cc1" is ___
## Output ≤ 1000 nM

## Input Fill in: IC50 of "COc1nc(NCCNc2ncc(-c3ncc[nH]3)c(-c3ccc(Cl)cc3Cl)n2)ccc1[N+](=O)[O-]" is ___
## Output ≤ 1000 nM

## Input Fill in: IC50 of "CC(=O)Nc1ccc(-c2ccnc(NCCNc3ccc([N+](=O)[O-])cn3)n2)cc1" is ___
## Output ≤ 10000 nM

## Input Fill in: IC50 of "CC(=O)Nc1cnc(NCCNc2ccc([N+](=O)[O-])cn2)nc1-c1ccc(Cl)cc1Cl" is ___
## Output ≤ 1000 nM

## Input Fill in: IC50 of "O=C(NCc1cccc(Cl)c1)c1ccc(-c2ccnc(NCCNc3ccc([N+](=O)[O-])cn3)n2)cc1" is ___
## Output ≤ 10000 nM

## Input Fill in: IC50 of "COc1cccc(CNc2nccc(-c3ccc(C(N)=O)cc3)n2)c1" is ___
## Output ≤ 10000 nM

## Input Fill in: IC50 of "O=C(NCc1cccs1)c1ccc(-c2ccnc(NCCNc3ccc([N+](=O)[O-])cn3)n2)cc1" is ___
## Output ≤ 10000 nM

## Input Fill in: IC50 of "CN(C)CCOC(=O)c1cnc(NCCNc2ccc([N+](=O)[O-])cn2)nc1-c1ccc(C#N)cc1" is ___
## Output ≤ 1000 nM

## Input Fill in: IC50 of "Fc1ccc(-c2ccnc(NCCNc3ccccn3)n2)cc1F" is ___
## Output ≤ 10000 nM

## Input Fill in: IC50 of "N#Cc1ccc(-c2nc(NCCNc3ccc([N+](=O)[O-])cn3)ncc2[N+](=O)[O-])cc1" is ___
## Output ≤ 10000 nM

## Input Fill in: IC50 of "CCOC(=O)c1c(CC)nc(NCCNc2ccc([N+](=O)[O-])cn2)nc1-c1ccc(C#N)cc1" is ___
## Output ≤ 1000 nM

## Input Fill in: IC50 of "CCOC(=O)c1cnc(NCCc2cccc(OC)c2)nc1-c1ccc(C#N)cc1" is ___
## Output ≤ 10000 nM

## Input Fill in: IC50 of "N#Cc1ccc(NCCNc2ncc(-c3ncc[nH]3)c(-c3ccc(F)cc3Cl)n2)nc1" is ___
## Output ≤ 1000 nM

## Input Fill in: IC50 of "COc1cccc(NCCNc2nccc(-c3ccc(C(N)=O)cc3)n2)n1" is ___
## Output ≤ 1000 nM

## Input Fill in: IC50 of N#Cc1ccc(-c2nc(NCCNc3ccc([N+](=O)[O-])cn3)ncc2C(=O)NC(CO)C(N)=O)cc1 (stereo not shown) is ___
## Output ≤ 1000 nM

## Input Fill in: IC50 of "CN1CCN(c2ccc(NCCNc3ccc([N+](=O)[O-])c(N)n3)nc2-c2cccnc2)C(=O)C1" is ___
## Output ≤ 10000 nM

## Input Fill in: IC50 of "Nc1nc(NCCNc2ncc(-n3nnnc3C(F)(F)F)c(-c3ccc(Cl)cc3Cl)n2)ccc1[N+](=O)[O-]" is ___
## Output ≤ 1000 nM
